testedOn: PKC alpha kinase (Homo sapiens)
// reported Ki for each item listed

compound: Nc1ncccc1C(=O)c1nc(NCC2CCCNC2)ccc1C(F)(F)F (stereo not drawn)
Ki: 500 to 2800 nM
//
compound: Nc1ncccc1C(=O)c1nc(NCC2CCCCN2)ccc1C(F)(F)F (stereo not drawn)
Ki: 500 to 2800 nM
//
compound: CCc1ccc(N2CCNCC2)nc1C(=O)c1cccnc1N
Ki: > 2800 nM
//
compound: Cc1ccc(N2CCNCC2)nc1C(=O)c1cccnc1N
Ki: 500 to 2800 nM
//
compound: CC(C)C[C@H]1CN(c2ccnc(C(=O)c3cccnc3N)n2)CCN1
Ki: 500 to 2800 nM

Attention now shifts to the item below.
The compound identified as CC(C)C[C@H]1CN(c2ccc(C3CC3)c(C(=O)c3cccnc3N)n2)CCN1 registered its Ki at 500 to 2800 nM

====

// reported Ki for each item listed
testedOn: PKC delta kinase (Homo sapiens)
testName: PKC Delta coupled-enzyme kinase assay
Assay type: biochemical
reportedConditions: 46 nM PKC delta, 150 μM ATP, 30° C.; read-out: Ki PKC delta

Solved cases (5 shown):
compound: Cc1cccc(C2CN(c3cccc(C(=O)c4cccnc4N)n3)CCN2)c1 (stereo not drawn) [compound 335]
testedOn: PKC delta kinase (Homo sapiens)
Ki: 50 to 500 nM
//
compound: Nc1ncccc1C(=O)c1nc(NCC2CCCCN2)ccc1C(F)(F)F (stereo not drawn) [compound 382]
testedOn: PKC delta kinase (Homo sapiens)
Ki: 500 to 2800 nM
//
compound: Nc1ncc(Br)cc1C(=O)c1ncc(C(=O)NCc2ccccc2)s1 [compound 62]
testedOn: PKC delta kinase (Homo sapiens)
Ki: 50 to 500 nM
//
compound: CN1CCCN(c2csc(C(=O)c3cc(Br)cnc3N)n2)CC1 [compound 163]
testedOn: PKC delta kinase (Homo sapiens)
Ki: 50 to 500 nM
//
compound: Nc1ncc(-c2cc3ccccc3s2)cc1C(=O)c1cccc(N2CCNC(c3ccccc3)C2)n1 (stereo not drawn) [compound 265]
testedOn: PKC delta kinase (Homo sapiens)
Ki: 500 to 2800 nM

The compound identified as C[C@H]1CNCCN1c1cccc(C(=O)c2cccnc2N)n1 [compound 228] registered its Ki at 50 to 500 nM

The compound identified as Nc1ncccc1C(=O)c1cccc(N2CCCN(C(=O)CC3CCCCC3)CC2)n1 [compound 39] registered its Ki at > 2800 nM

The compound identified as CNCCNc1ccc(C(F)(F)F)c(C(=O)c2cccnc2N)n1 [compound 373] registered its Ki at 500 to 2800 nM

The compound identified as NC(=O)CNc1ccc(C(F)(F)F)c(C(=O)c2cccnc2N)n1 [compound 386] registered its Ki at 500 to 2800 nM

The compound identified as COc1ccccc1-c1cnc(N)c(C(=O)c2cccc(N3CCNC(c4ccccc4)C3)n2)c1 (stereo not drawn) [compound 284] registered its Ki at 50 to 500 nM

The compound identified as Nc1ncccc1C(=O)c1nc(N2CCNCC2)ccc1Cc1ccccc1 [compound 417] registered its Ki at 500 to 2800 nM

The compound identified as Cc1sc(N2CCCNCC2)nc1C(=O)c1cccnc1N [compound 109] registered its Ki at 500 to 2800 nM

The compound identified as C=Cc1cnc(N)c(C(=O)c2cccc(N3CCCNCC3)n2)c1 [compound 66] registered its Ki at 50 to 500 nM

The compound identified as C[C@H]1CN(c2cccc(C(=O)c3cccnc3N)n2)[C@@H](C)CN1 [compound 218] registered its Ki at 50 to 500 nM

The compound identified as CC(C)(C)CCN1CCCN(c2cccc(C(=O)c3cccnc3N)n2)CC1 [compound 44] registered its Ki at > 2800 nM

The compound identified as Cc1cccc(C)c1C1CN(c2cccc(C(=O)c3cccnc3N)n2)CCN1 (stereo not drawn) [compound 337] registered its Ki at > 2800 nM

The compound identified as NCCSc1ccc(C(F)(F)F)c(C(=O)c2cccnc2N)n1 [compound 367] registered its Ki at 500 to 2800 nM

The compound identified as CC(C)C[C@H]1CN(c2ccc(-c3cnn(C)c3)c(C(=O)c3cccnc3N)n2)CCN1 [compound 420] registered its Ki at 500 to 2800 nM

====

testedOn: PKC alpha kinase (Homo sapiens)
testName: PKC Alpha coupled-enzyme kinase assay
Assay type: biochemical
reportedConditions: 4.5 nM PKC alpha, 130 μM ATP, 30° C.
pKi: −log10 of the molar value.
// reported pKi for each item listed

The compound identified as Nc1ncccc1C(=O)c1nc(N2CCNCC2)ccc1C#CC1CC1 registered its pKi at 5.55 to 6.30

The compound identified as Nc1ncccc1C(=O)c1nc(N2CCNCC2)ccc1C1CC1 registered its pKi at < 5.55

The compound identified as Nc1ncc(Br)cc1C(=O)c1nc(N2CCNCC2)ccc1C(F)(F)F registered its pKi at > 7.30

The compound identified as Nc1ncccc1C(=O)c1nc(NC2CCCC(N)C2)ccc1C(F)(F)F (centres unmarked) registered its pKi at 5.55 to 6.30

The compound identified as Cc1ccccc1C1CN(c2cccc(C(=O)c3cccnc3N)n2)CCN1 (centres unmarked) registered its pKi at 5.55 to 6.30

====

testedOn: PKC theta (Homo sapiens)
Sequence (Q04759 whole entry): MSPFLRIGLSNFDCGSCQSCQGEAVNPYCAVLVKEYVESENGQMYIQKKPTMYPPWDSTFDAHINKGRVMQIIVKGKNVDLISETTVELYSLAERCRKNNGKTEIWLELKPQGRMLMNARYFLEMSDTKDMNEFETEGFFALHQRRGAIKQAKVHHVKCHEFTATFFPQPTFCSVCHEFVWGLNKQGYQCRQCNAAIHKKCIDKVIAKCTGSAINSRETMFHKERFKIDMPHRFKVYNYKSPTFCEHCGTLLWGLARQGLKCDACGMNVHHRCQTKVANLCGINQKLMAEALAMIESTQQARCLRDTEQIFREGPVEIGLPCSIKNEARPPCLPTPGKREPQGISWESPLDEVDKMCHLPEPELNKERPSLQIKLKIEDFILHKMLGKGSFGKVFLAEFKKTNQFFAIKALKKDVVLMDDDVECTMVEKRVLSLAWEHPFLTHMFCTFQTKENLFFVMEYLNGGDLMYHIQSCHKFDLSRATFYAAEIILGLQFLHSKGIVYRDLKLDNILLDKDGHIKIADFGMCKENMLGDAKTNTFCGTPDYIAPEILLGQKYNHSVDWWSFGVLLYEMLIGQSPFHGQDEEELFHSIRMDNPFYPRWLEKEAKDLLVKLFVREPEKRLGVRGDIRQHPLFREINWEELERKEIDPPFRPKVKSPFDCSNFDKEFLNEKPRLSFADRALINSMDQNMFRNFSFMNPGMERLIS
testName: PKC Theta III assay, similar to PKC theta I with fluorescence read out
Format: biochemical
reportedConditions: fluorescence read out rather than UV
// reported Ki for each item listed

compound: Nc1ncccc1C(=O)c1cccc(NCC(O)CO)n1 (centres unmarked)
Ki: > 2800 nM

Attention now shifts to the item below.
The compound identified as Nc1ncccc1C(=O)c1cccc(NC2CCN(Cc3ccccc3)CC2)n1 registered its Ki at > 2800 nM

====

testedOn: PKC delta kinase (Homo sapiens, UniProt Q05655)
Sequence (Q05655 whole entry): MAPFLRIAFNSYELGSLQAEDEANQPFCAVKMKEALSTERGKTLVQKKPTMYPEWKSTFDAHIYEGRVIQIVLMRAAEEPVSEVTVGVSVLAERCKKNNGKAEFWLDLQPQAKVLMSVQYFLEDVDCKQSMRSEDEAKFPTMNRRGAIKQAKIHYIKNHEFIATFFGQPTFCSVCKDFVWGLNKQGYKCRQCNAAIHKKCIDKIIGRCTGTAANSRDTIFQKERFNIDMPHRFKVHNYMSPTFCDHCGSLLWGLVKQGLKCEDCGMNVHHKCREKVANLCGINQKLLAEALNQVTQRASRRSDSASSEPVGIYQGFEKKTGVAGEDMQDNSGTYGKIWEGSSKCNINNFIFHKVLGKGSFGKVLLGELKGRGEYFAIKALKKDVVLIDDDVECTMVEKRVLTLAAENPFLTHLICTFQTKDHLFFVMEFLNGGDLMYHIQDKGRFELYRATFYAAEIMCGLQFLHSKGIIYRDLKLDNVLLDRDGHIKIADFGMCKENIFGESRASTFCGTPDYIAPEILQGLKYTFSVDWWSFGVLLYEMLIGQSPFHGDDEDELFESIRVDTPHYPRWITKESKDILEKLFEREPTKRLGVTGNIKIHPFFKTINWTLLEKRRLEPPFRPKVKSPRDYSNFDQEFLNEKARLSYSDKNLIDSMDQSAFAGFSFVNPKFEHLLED
testName: PKC Delta coupled-enzyme kinase assay
Format: biochemical
pKi: −log10 of the molar value.
experimentalEndpoint: pKi

compoundStructureString: CC(C)[C@@H]1CN(c2cccc(C(=O)c3cccnc3N)n2)CCN1
pKi: 5.55 to 6.30

// assay PKC delta kinase (Homo sapiens, UniProt Q05655), entry CC1(C)CN(c2cccc(C(=O)c3cccnc3N)n2)CCN1 , pKi value = 6.30 to 7.30

// assay PKC delta kinase (Homo sapiens, UniProt Q05655), entry CC(C)(C)[C@H]1CN(c2cccc(C(=O)c3cccnc3N)n2)CCN1 , pKi value = 6.30 to 7.30

// assay PKC delta kinase (Homo sapiens, UniProt Q05655), entry Nc1ncccc1C(=O)c1cccc(N2CCC(N)CC2)n1 , pKi value = 6.30 to 7.30

====

testedOn: PKC delta kinase (Homo sapiens)
testName: PKC Delta coupled-enzyme kinase assay
Assay type: biochemical
reportedConditions: 46 nM PKC delta, 150 μM ATP, 30° C.; read-out: Ki PKC delta
pKi: −log10 of the molar value.
// reported pKi for each item listed

Solved cases (3 shown):
molecule: Nc1ncccc1C(=O)c1cccc(N2CCNC(c3ccc(F)cc3)C2)n1 (stereo not drawn) [compound 295]
pKi: 6.30 to 7.30
--
molecule: Nc1ncccc1C(=O)c1cccc(N2CCN3CCCC3C2)n1 (single isomer, unassigned) [compound 211]
pKi: 6.30 to 7.30
--
molecule: Nc1ncc(-c2cccc(CO)c2)cc1C(=O)c1cccc(N2CCNC(c3ccccc3)C2)n1 (stereo not drawn) [compound 283]
pKi: 6.30 to 7.30

The molecule identified as Nc1ncccc1C(=O)c1ccn(C2CCNCC2)n1 [compound 184] registered its pKi at 5.55 to 6.30

The molecule identified as NCCCNc1ccc(C(F)(F)F)c(C(=O)c2cccnc2N)n1 [compound 372] registered its pKi at 5.55 to 6.30

====

testedOn: PKC delta kinase (Homo sapiens, UniProt Q05655)
testName: PKC Delta coupled-enzyme kinase assay
Assay type: biochemical
reportedConditions: 46 nM PKC delta, 150 μM ATP, 30° C.; read-out: Ki PKC delta
pKi: −log10 of the molar value.
experimentalEndpoint: pKi

Solved cases (3 shown):
molecule: Nc1ncc(Br)cc1C(=O)c1nc(N2CCNCC2)ccc1C(F)(F)F
value: 6.30 to 7.30

molecule: COc1ccccc1C1CN(c2cccc(C(=O)c3cccnc3N)n2)CCN1 (stereo not drawn)
value: 6.30 to 7.30

molecule: NCCOc1ccc(C(F)(F)F)c(C(=O)c2cccnc2N)n1
value: 5.55 to 6.30

The molecule identified as Cc1cc(Nc2ccc(C(F)(F)F)c(C(=O)c3cccnc3N)n2)[nH]n1 registered its pKi at 5.55 to 6.30

The molecule identified as COC(=O)N1CCCN(c2cccc(C(=O)c3cccnc3N)n2)CC1 registered its pKi at 5.55 to 6.30

The molecule identified as Nc1ncccc1C(=O)c1nc(N2CCCNCC2)cs1 registered its pKi at 6.30 to 7.30

The molecule identified as Nc1ncc(-c2cc[nH]c2)cc1C(=O)c1cccc(N2CCCNCC2)n1 registered its pKi at 6.30 to 7.30

The molecule identified as Nc1ncc(-c2ccccc2)cc1C(=O)c1cccc(N2CCCNCC2)n1 registered its pKi at 6.30 to 7.30

The molecule identified as CC(C)C[C@H]1CN(c2cccc(C(=O)c3cc(-c4ccccc4)cnc3N)n2)CCN1 registered its pKi at 5.55 to 6.30

Source: patent US20110077237A1
